# subject-of-test: human Nav1.7 channels (Homo sapiens, UniProt Q15858)
# Sequence (Q15858 whole entry): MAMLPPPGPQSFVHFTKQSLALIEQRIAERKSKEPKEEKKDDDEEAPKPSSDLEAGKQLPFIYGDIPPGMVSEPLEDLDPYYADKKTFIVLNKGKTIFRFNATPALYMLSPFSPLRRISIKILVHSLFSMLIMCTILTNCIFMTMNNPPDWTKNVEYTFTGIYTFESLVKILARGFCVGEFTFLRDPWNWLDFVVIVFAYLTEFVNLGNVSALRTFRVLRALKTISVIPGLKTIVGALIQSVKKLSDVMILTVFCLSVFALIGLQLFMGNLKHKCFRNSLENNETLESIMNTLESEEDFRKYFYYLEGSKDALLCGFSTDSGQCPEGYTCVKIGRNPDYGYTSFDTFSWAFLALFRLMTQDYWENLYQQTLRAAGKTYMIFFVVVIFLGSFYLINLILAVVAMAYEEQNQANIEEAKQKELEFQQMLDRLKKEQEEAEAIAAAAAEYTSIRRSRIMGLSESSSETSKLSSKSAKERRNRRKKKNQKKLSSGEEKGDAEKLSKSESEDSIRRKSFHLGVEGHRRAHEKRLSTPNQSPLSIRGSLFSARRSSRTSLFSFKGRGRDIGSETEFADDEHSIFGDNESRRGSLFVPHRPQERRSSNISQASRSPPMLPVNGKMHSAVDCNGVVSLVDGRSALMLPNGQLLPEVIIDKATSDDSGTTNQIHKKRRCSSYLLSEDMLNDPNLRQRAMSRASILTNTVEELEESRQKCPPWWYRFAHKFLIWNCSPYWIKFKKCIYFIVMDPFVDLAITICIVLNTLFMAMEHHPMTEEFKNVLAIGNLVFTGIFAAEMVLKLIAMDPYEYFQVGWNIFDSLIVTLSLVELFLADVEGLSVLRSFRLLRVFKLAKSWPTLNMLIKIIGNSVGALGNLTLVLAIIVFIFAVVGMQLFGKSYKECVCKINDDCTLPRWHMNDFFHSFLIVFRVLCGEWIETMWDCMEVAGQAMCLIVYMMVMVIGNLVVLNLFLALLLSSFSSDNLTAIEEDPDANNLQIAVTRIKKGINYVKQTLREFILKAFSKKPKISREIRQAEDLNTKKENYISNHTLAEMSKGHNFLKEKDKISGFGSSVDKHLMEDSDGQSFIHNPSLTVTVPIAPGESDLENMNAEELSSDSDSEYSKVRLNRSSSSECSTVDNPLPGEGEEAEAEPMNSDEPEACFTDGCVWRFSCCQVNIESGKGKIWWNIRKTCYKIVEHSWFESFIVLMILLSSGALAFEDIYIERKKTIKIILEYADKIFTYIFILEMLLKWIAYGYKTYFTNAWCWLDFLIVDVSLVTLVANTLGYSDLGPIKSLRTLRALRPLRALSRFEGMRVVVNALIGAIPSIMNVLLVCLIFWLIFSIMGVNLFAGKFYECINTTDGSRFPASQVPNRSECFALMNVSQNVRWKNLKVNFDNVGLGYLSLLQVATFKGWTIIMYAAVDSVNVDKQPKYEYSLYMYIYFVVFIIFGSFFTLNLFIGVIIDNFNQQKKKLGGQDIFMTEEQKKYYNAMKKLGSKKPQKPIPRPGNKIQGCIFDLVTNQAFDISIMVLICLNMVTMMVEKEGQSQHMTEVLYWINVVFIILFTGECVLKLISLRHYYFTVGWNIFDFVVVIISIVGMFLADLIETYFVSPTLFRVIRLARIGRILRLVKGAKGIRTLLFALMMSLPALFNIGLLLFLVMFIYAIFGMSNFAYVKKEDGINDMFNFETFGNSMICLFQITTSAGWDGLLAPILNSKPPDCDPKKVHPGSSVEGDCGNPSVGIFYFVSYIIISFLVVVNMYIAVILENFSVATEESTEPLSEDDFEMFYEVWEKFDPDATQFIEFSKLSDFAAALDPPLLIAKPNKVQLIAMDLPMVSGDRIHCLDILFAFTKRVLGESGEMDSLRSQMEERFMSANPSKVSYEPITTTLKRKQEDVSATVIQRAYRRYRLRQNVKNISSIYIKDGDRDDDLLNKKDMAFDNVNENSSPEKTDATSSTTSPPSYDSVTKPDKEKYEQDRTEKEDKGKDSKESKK
# test: IonWorks Quattro automated patch-clamp, inactivated state block of Nav1.7
# condition-set: human Nav1.7 stably expressed in HEK 293 cells, double-pulse protocol, read-out: potency for the Nav 1.7 sodium ion channel (as measured by IonWorks)
pIC50: −log10 of the molar value.
value-kind: pIC50

1. COc1cccc(C[C@@]2(CNc3cc(F)c(S(=O)(=O)Nc4nccs4)cc3Cl)C[C@H](O)CN2)c1 [Ex1-31] | 8.15

I. O=S(=O)(Nc1nccs1)c1cc(Cl)c(NC[C@]2(Cc3ccc(-c4ccccn4)cc3)C[C@H](O)CN2)cc1F [Ex3-2]
II. CC(C)(C)CC[C@@]1(CNc2cc(F)c(S(=O)(=O)Nc3nccs3)cc2Cl)C[C@H](O)CN1 [Ex1-34]
III. O=S(=O)(Nc1nccs1)c1cc(Cl)c(NC[C@]2(Cc3ccc(-c4ccn[nH]4)cc3)C[C@H](O)CN2)cc1F [Ex4-2]
Rank entries according to their pIC50, from the largest number down. List the labels in the requested order.
II, I, III

----------
# subject-of-test: human Nav1.7 channels (Homo sapiens)
# test: IonWorks Quattro automated patch-clamp, inactivated state block of Nav1.7
# condition-set: human Nav1.7 stably expressed in HEK 293 cells, double-pulse protocol, read-out: potency for the Nav 1.7 sodium ion channel (as measured by IonWorks)
# Method: IonWorks® Experimental Procedure Compounds were tested on human Nav1.7 and Nav1.5 channels stably expressed in HEK 293 cells. […] For all electrophysiology experiments, offline analysis was used to determine percent inhibition as a function of drug concentration. IC50 values were determined by fitting to the Hill equation. […]
pIC50: −log10 of the molar value.
value-kind: pIC50

Look over these answered cases.
1. NCc1ccc(C[C@@]2(CNc3cc(F)c(S(=O)(=O)Nc4nccs4)cc3Cl)C[C@H](O)CN2)cc1 [Ex2-3] | 7.42
2. O=S(=O)(Nc1nccs1)c1cc(Cl)c(NC[C@]2(Cc3cccc(Br)c3)C[C@H](O)CN2)cc1F [Ex1-30] | 8.15
3. N#Cc1ccc(C[C@@]2(CNc3cc(F)c(S(=O)(=O)Nc4nccs4)cc3Cl)C[C@H](O)CN2)cc1 [Ex2-2] | 8.40
4. O=S(=O)(Nc1nccs1)c1cc(Cl)c(NC[C@]2(CCc3ccccc3)C[C@H](O)CN2)cc1F [Ex1-28] | 8.52

P. O=S(=O)(Nc1nccs1)c1cc(Cl)c(NC[C@]2(Cc3ccc(-c4ncco4)cc3)C[C@H](O)CN2)cc1F [Ex3-3]
Q. Cc1cccc(C[C@@]2(CNc3cc(F)c(S(=O)(=O)Nc4nccs4)cc3Cl)C[C@H](O)CN2)c1 [Ex1-32]
Among P and Q , which shows a numerically higher pIC50 result? Indicate your choice by writing its label.
Q

1. O=S(=O)(Nc1nccs1)c1cc(Cl)c(NC[C@]2(CC3CCC3)C[C@H](O)CN2)cc1F [Ex1-15]
2. N#Cc1cccc(C[C@@]2(CNc3cc(F)c(S(=O)(=O)Nc4nccs4)cc3Cl)C[C@H](O)CN2)c1 [Ex2-4]
Among 1 and 2 , which shows a numerically higher pIC50 result? Indicate your choice by writing its label.
1
(1: 8.40, 2: 7.96)

----------
# subject-of-test: human Nav1.7 channels (Homo sapiens, UniProt Q15858)
# test: IonWorks Quattro automated patch-clamp, inactivated state block of Nav1.7
# condition-set: human Nav1.7 stably expressed in HEK 293 cells, double-pulse protocol, read-out: potency for the Nav 1.7 sodium ion channel (as measured by IonWorks)
pIC50: −log10 of the molar value.
value-kind: pIC50

Look over these answered cases.
1. O=S(=O)(Nc1nccs1)c1cc(Cl)c(NC[C@]2(Cc3ccccc3)C[C@H](O)CN2)cc1F | 8.10
2. O=S(=O)(Nc1nccs1)c1cc(Cl)c(NC[C@]2(Cc3cccc(F)c3)C[C@H](O)CN2)cc1F | 8.15
3. NCc1cccc(C[C@@]2(CNc3cc(F)c(S(=O)(=O)Nc4nccs4)cc3Cl)C[C@H](O)CN2)c1 | 8.40

P. O=S(=O)(Nc1nccs1)c1cc(Cl)c(NC[C@]2(Cc3ccc(Br)cc3)C[C@H](O)CN2)cc1F
Q. O=S(=O)(Nc1nccs1)c1cc(Cl)c(NC[C@]2(CCCc3ccccc3)C[C@H](O)CN2)cc1F
Field: lower recorded pIC50 (choose P or Q ) Indicate your choice by writing its label.
P
(P: 8.40, Q: 8.70)

----------
Known ratio of Nav1.7 potency:Nav 1.5 potency of a selection of compounds
# subject-of-test: human Nav1.5 channels (Homo sapiens, UniProt Q14524)
# Construct: expressed in transfected cells; host or cells: HEK 293
# Sequence (Q14524 whole entry): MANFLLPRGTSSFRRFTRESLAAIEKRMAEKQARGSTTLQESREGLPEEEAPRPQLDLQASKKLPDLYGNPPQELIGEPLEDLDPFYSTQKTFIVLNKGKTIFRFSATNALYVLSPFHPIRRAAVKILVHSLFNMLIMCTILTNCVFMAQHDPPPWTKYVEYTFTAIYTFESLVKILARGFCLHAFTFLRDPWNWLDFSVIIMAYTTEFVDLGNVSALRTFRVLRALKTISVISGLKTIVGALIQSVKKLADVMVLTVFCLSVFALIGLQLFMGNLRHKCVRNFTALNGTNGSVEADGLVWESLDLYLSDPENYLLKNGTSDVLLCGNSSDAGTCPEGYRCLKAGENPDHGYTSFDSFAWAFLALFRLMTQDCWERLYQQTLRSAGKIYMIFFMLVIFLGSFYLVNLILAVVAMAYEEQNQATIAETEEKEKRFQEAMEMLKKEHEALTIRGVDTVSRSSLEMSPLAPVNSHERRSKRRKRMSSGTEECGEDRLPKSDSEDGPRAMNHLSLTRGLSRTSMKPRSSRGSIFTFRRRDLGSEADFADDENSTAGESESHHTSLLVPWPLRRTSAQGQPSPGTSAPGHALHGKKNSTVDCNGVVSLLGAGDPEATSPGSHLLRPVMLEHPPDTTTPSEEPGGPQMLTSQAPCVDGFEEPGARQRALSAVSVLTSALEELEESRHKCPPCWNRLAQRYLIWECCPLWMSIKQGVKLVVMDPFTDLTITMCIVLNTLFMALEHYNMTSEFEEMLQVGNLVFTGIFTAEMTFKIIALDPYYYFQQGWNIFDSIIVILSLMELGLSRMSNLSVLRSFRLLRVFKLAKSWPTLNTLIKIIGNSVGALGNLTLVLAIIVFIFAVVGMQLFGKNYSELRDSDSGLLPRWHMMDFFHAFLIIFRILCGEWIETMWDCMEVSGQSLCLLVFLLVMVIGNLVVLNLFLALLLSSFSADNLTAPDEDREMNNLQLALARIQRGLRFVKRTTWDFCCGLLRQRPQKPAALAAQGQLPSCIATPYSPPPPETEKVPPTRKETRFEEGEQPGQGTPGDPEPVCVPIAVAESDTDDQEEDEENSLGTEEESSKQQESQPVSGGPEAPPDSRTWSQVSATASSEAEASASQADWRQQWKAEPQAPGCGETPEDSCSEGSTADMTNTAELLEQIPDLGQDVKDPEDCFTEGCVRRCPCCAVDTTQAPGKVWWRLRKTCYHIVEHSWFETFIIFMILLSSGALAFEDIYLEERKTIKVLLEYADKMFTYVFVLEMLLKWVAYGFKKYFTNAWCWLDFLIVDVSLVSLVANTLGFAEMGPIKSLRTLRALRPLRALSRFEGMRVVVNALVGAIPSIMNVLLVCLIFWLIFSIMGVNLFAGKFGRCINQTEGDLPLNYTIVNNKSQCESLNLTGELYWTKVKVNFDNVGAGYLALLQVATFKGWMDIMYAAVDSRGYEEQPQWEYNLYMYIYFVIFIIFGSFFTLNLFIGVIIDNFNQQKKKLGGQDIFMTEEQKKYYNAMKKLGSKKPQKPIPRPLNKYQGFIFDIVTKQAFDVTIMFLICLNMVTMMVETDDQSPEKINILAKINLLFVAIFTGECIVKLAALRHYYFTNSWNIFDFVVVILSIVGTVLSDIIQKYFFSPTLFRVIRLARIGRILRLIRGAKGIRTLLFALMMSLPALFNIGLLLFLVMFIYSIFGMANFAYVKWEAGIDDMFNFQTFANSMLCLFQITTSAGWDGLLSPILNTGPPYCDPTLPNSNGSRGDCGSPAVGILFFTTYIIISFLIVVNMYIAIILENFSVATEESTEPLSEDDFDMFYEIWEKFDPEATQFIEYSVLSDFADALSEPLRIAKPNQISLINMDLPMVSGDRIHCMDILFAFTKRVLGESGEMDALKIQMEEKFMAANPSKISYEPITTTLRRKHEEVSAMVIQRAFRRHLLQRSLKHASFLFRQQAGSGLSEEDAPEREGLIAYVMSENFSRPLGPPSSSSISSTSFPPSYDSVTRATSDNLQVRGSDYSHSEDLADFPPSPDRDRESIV
# test: IonWorks Quattro automated patch-clamp, Nav1.5 (selectivity versus Nav1.7)
# Format: cell-based
# condition-set: selectivity Nav1.7 over Nav1.5, both by IonWorks in HEK 293 cells
The answer should be a number; do not append a unit.

Look over these answered cases.
1. CC(C)(C)CC[C@@]1(CNc2cc(F)c(S(=O)(=O)Nc3nccs3)cc2Cl)C[C@H](O)CN1 | 6750
2. O=S(=O)(Nc1nccs1)c1cc(Cl)c(NC[C@]2(CCCc3ccccc3)C[C@H](O)CN2)cc1F | 10500
3. N#Cc1cccc(C[C@@]2(CNc3cc(F)c(S(=O)(=O)Nc4nccs4)cc3Cl)C[C@H](O)CN2)c1 | 2909
4. Cc1cccc(C[C@@]2(CNc3cc(F)c(S(=O)(=O)Nc4nccs4)cc3Cl)C[C@H](O)CN2)c1 | 16500
5. O=S(=O)(Nc1nccs1)c1cc(Cl)c(NC[C@]2(Cc3ccc(-c4ncco4)cc3)C[C@H](O)CN2)cc1F | 933
6. NCc1cccc(C[C@@]2(CNc3cc(F)c(S(=O)(=O)Nc4nccs4)cc3Cl)C[C@H](O)CN2)c1 | 6250

Consider now this further compound.
# ratio of Nav1.7 potency:Nav 1.5 potency of O=S(=O)(Nc1nccs1)c1cc(Cl)c(NC[C@]2(CCc3ccccc3)C[C@H](O)CN2)cc1F = 11000
